- SYSTEM: recombinant human mGluR2 (Homo sapiens)
- Sequence (Q14416 19-872): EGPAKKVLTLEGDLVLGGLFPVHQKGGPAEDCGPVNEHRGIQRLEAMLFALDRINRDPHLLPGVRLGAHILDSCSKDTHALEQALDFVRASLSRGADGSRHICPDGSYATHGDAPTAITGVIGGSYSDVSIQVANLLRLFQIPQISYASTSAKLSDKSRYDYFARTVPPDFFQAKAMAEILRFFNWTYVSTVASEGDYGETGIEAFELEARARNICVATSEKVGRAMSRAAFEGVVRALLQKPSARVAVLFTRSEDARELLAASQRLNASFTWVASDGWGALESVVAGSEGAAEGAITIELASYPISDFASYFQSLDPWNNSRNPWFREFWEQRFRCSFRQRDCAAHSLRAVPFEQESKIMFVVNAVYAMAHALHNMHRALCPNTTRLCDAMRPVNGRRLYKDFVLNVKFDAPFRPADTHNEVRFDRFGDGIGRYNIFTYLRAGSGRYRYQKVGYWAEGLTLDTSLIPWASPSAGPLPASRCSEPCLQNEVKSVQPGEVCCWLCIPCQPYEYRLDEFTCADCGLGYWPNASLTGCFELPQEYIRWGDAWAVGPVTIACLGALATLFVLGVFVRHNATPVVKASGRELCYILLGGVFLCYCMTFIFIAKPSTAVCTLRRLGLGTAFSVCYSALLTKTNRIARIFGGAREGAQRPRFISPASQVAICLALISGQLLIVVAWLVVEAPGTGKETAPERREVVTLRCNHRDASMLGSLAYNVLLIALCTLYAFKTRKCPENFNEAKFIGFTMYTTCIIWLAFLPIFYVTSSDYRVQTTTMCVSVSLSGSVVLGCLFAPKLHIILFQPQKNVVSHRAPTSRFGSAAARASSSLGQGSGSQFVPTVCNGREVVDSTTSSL
- EXPERIMENT_SUMMARY: FLIPR Ca2+ mobilization assay, potentiation of mGluR2
- EXPERIMENTAL_CONDITIONS: potentiation with EC20 glutamate (900 nM); CHO dhfr- cells expressing human mGluR2 and Gα16
- Procedure: Potencies are determined as follows. The compounds of the present invention may be tested in a fluorescence laser imaging plate reader (FLIPR) based assay. […] CHO dhfr-cells stably expressing recombinant human mGluR2 and Gα16 loaded with Fluo-4 AM (Invitrogen, Carlsbad Calif.) are treated with varying concentrations of compounds and the Ca^2+ response is monitored on a FLIPR384 (Molecular Devices, Sunnydale Calif.) for agonist activity. […]
READOUT: EC50 (nM)

Examples from the recorded data:
[
  {
    "COMPOUND": "CN1C(=O)CN(Cc2ccc(-c3ccc4c(nnn4CC4CC4)c3CO)cc2)C1=O",
    "EC50 / nM": 841
  },
  {
    "COMPOUND": "CN1C(=O)CN(Cc2ccc(-c3ccc4c(c3)nnn4CC3CC3)cc2)C1=O",
    "EC50 / nM": 196
  }
]

(I) CN1C(=O)CN(Cc2ccc(-c3ccc4c(nnn4CC4CC4)c3[S+](C)[O-])cc2F)C1=O (centres unmarked)
(II) C[C@H](O)C(=O)NCc1ccc(-c2ccc3c(nnn3CC3CC3)c2C(F)(F)F)cc1
(III) CN1C(=O)CN(Cc2ccc(-c3ccc4c(nnn4CC4CC4)c3CF)cc2)C1=O
(IV) CN1C(=O)CN(Cc2ccc(-c3ccc4c(nnn4CC4CC4)c3C#N)cc2)C1=O
In this exercise, place the 4 compounds in ascending sequence of their recorded EC50. Put the labels in the requested order and list them out. III, IV, II, I

(I) C[C@@H](O)C(=O)NCc1ccc(-c2ccc3c(nnn3CC3CC3)c2Cl)cc1
(II) O=C1CN(Cc2ccc(-c3ccc4c(nnn4CC4CC4)c3Cl)cc2)C(=O)N1
Looking only at measured EC50, which entry is lower, I or II ? Choose, then provide that item's label. II
